Values were extracted from ChEMBL document CHEMBL1932926.

EC50 values, listed per item
# System: Lu1
# RUN DESCRIPTION: Cytotoxicity against human Lu1 cells by SRB assay
# Format: functional
# CONDITION SET: read-out: ED50 (the source's name)
Note to self: number, then unit, no commentary.

Examples from the recorded data:
>  <MOL SMILES>
C=C1CC[C@@H]2[C@](C)(CO)[C@H](OC(C)=O)CC[C@@]2(C)[C@@H]1C/C=C1/C(=O)OC[C@H]1O

>  <EC50>
30.6 µM

$$$$
>  <MOL SMILES>
C=C1CC[C@@H]2[C@](C)(CO[Si](c3ccccc3)(c3ccccc3)C(C)(C)C)[C@H](O)CC[C@@]2(C)[C@@H]1C/C=C1/C(=O)OC[C@H]1OC(C)=O

>  <EC50>
11.9 µM

$$$$
>  <MOL SMILES>
C=C1CC[C@@H]2[C@](C)(CO[Si](C)(C)C(C)(C)C)[C@H](O)CC[C@@]2(C)[C@@H]1C/C=C1/C(=O)OC[C@H]1OC(C)=O

>  <EC50>
10.4 µM

$$$$
>  <MOL SMILES>
C=C1CC[C@@H]2[C@](C)(CO[Si](C(C)C)(C(C)C)C(C)C)[C@H](OC(C)=O)CC[C@@]2(C)[C@@H]1C/C=C1/C(=O)OC[C@H]1OC(C)=O

>  <EC50>
18.8 µM

$$$$

Exercise: Quick one: EC50 for "C=C1CC[C@@H]2[C@]3(C)COC(C)(C)O[C@@H]3CC[C@@]2(C)[C@@H]1C/C=C1/C(=O)OC[C@H]1O" ?
Key: 53 µM

Exercise: Quick one: EC50 for "C=C1CC[C@@H]2[C@](C)(CO[Si](c3ccccc3)(c3ccccc3)C(C)(C)C)[C@H](OC(C)=O)CC[C@@]2(C)[C@@H]1C/C=C1/C(=O)OC[C@H]1OC(C)=O" ?
Key: 52.9 µM
